Here the recorded pIC50 is given for each entry.
# target.or.test.system: Voltage-gated inwardly rectifying potassium channel KCNH2 (Homo sapiens, UniProt Q12809)
# Sequence (Q12809 whole entry): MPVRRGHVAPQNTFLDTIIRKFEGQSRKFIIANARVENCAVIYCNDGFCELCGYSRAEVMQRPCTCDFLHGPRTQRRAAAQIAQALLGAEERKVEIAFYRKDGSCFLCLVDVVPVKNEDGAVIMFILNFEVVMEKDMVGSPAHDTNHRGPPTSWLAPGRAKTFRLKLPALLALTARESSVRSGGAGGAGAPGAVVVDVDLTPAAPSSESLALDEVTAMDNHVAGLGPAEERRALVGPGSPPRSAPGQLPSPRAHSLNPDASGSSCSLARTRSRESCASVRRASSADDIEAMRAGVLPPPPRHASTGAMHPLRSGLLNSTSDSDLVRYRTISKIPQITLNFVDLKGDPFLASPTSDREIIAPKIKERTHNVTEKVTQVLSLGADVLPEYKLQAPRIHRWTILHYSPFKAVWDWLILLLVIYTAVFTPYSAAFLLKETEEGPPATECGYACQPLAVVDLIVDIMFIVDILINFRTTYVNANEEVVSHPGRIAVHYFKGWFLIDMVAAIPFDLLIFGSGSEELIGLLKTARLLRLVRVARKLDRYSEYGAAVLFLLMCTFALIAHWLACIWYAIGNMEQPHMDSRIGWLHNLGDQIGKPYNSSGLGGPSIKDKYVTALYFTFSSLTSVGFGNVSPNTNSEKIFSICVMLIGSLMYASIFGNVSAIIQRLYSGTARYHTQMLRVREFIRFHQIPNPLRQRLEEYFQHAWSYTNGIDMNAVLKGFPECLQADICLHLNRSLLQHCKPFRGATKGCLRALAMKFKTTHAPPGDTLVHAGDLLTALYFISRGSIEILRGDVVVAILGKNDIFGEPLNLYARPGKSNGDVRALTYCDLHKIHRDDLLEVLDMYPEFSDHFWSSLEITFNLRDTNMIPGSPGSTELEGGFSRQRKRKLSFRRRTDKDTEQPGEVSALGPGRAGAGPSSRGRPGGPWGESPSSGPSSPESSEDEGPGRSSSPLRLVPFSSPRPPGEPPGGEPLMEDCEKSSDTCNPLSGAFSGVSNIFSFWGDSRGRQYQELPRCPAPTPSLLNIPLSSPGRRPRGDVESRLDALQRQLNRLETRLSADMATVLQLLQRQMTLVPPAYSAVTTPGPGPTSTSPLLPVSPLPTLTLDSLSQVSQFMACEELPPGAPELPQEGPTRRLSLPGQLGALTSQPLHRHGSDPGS
# assay.protocol: Inhibition of hERG by patch clamp assay
pIC50 is defined as minus the log10 of a concentration measured in mol/L.

Cc1cccc2[nH]c(-c3cncc(-c4cc(F)cc(C#N)c4)c3N3CC[C@H](N)C3)nc12 = 5.68

Let us examine a further case.
Name the recorded pIC50 of the compound listed here: Cc1ccc(F)c2[nH]c(-c3cncc(-c4cc(F)cc(C#N)c4)c3N3CC[C@H](N)C3)nc12
6.55

###

# assay.protocol: AUC(0 to infinity) in Sprague-Dawley rat at 10 mg/kg, po
# Assay type: ADME, organism-based
# Parameters: time infinity, dose 10 mg/kg, route po
# test.context: in vivo
parameter.measured: AUC(0-inf)

Cc1cccc2[nH]c(-c3cncc(-c4cc(F)cc(C#N)c4)c3N3CC[C@H](N)C3)nc12 = 951 ng·h/mL

Let us examine a further case.
Name the recorded AUC(0-inf) of the compound listed here: N[C@H]1CCN(c2c(-c3cc(F)cc(Cl)c3)cncc2-c2nc3c(F)cccc3[nH]2)C1
2480 ng·h/mL
